Target: T1, human IL2Rγ (endogenously expressed on cells) (human, UniProt P31785 23-369)
T1 sequence (looked up): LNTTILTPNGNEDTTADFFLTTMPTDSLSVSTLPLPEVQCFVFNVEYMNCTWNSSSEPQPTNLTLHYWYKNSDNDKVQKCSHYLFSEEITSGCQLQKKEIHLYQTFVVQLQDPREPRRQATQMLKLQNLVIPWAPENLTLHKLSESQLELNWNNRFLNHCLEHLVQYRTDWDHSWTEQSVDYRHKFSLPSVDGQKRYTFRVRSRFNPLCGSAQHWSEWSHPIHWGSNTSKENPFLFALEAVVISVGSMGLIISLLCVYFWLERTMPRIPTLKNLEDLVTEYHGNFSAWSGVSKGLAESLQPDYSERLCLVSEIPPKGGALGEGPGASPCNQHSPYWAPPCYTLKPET
Assay: cell-based or functional assay
Reported Max Inhibition (%); IL-9 20 pM; NK92/hIL7R/STAT3-luc values for a set of binders
Unit % implied. Number only.

These solved cases illustrate the format of a correct answer.
H4H12857P (antibody, human IgG4 S228P, kappa, V domains shown, human IgG4; also called REGN9432) VH: EVQLVESGGGVVRPGGSLRLSCAASGFTFDDFDMSWVRQGPGKGLEWVSGINWHGSSTGYADSVKGRFTISRDNAKNSLYLQMSSLRAEDTALYHCVRGGTIVGATTPLDYWGQGTLVTVSS VL: DIQMTQSPSSLSASVGDRVTMTCRASRTISSYLSWYQQKSGKVPNLLIFGASSLQSGVPSRFSASGSGTDFTLIISSLQPEDFATYYCQQSYSSPLTFGGGTKVEIKR: 83
H4H12889P (antibody, human IgG4 S228P, kappa, V domains shown, human IgG4; also called REGN7257) VH: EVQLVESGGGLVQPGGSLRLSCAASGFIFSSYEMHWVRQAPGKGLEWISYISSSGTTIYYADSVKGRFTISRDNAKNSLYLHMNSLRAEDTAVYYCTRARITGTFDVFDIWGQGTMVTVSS VL: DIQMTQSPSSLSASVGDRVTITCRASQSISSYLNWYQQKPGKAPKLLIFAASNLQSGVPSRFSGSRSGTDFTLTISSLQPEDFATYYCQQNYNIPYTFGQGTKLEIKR: 100
H4H12863P (antibody, human IgG4 S228P, kappa, V domains shown, human IgG4) VH: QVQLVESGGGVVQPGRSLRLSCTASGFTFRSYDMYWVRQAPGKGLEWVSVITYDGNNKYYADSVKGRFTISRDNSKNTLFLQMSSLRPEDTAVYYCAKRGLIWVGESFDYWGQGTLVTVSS VL: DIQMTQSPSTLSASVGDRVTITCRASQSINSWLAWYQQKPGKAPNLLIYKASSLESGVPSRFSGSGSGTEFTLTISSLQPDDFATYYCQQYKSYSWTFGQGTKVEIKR: 38

**Query** Fill in: Max Inhibition (%); IL-9 20 pM; NK92/hIL7R/STAT3-luc of H4H12890P (antibody, human IgG4 S228P, kappa, V domains shown, human IgG4) VH: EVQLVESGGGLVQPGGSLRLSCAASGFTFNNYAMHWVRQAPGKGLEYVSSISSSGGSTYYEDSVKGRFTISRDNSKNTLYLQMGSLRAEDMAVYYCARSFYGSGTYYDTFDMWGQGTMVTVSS VL: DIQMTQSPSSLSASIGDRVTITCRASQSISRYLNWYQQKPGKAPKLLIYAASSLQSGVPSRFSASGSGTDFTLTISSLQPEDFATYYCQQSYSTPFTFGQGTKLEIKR is ___
**Result** 36

**Query** Fill in: Max Inhibition (%); IL-9 20 pM; NK92/hIL7R/STAT3-luc of H4H12886P (antibody, human IgG4 S228P, kappa, V domains shown, human IgG4) VH: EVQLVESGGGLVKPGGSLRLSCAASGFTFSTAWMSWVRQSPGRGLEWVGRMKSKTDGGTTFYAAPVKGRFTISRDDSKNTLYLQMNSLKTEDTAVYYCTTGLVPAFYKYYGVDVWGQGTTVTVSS VL: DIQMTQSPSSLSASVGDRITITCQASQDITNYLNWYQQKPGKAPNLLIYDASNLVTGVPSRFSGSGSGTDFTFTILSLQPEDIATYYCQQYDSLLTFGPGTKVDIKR is ___
**Result** 84

**Query** Fill in: Max Inhibition (%); IL-9 20 pM; NK92/hIL7R/STAT3-luc of H4H12874P (antibody, human IgG4 S228P, kappa, V domains shown, human IgG4) VH: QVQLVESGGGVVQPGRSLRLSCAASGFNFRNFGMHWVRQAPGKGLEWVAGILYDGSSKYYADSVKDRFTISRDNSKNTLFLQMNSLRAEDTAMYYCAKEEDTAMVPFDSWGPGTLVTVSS VL: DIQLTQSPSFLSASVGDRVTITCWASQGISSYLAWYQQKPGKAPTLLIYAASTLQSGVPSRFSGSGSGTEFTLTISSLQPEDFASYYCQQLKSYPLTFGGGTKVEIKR is ___
**Result** 50
